- TARGET_OR_SYSTEM: Human AMPK α2β2γ1 (Homo sapiens, UniProt O43741+P54646)
- Construct: The full length cDNAs of human AMPK β2 (NM_005399.3) and human AMPK α2 (NM_006252.3); The full length cDNAs of human AMPK β2 (NM_005399.3); the full length cDNA of human AMPK γ1 (NM_002733.3) had been inserted into pET28b(+); 6×His (N); made in house; host or cells: Escherichia coli BL21 CodonPlus (DE3)-RIL
- Sequence (P54646 whole entry): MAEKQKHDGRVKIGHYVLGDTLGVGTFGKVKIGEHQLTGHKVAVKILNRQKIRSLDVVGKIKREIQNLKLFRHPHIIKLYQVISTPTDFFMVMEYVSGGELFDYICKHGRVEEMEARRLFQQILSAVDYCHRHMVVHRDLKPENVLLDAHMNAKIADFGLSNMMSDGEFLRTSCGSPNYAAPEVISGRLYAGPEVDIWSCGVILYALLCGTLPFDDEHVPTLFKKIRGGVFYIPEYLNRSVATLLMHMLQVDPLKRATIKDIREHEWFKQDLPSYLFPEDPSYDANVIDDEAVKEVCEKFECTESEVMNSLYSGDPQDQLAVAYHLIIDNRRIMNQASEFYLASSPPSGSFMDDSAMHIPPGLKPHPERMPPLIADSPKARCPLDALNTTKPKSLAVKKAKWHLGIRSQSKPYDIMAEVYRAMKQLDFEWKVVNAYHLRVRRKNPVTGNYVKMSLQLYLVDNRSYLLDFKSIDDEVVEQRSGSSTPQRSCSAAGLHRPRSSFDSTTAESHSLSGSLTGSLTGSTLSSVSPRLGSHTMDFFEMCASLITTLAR
- Sequence (O43741 whole entry): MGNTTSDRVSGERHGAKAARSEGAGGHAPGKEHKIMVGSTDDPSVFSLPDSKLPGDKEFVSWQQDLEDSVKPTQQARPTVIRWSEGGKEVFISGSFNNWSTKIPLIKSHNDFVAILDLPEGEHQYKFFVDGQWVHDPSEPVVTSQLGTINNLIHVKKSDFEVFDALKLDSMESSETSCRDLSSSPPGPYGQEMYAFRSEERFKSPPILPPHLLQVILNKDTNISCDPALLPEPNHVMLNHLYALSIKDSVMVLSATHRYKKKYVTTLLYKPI
- Sequence (P54619 whole entry partner): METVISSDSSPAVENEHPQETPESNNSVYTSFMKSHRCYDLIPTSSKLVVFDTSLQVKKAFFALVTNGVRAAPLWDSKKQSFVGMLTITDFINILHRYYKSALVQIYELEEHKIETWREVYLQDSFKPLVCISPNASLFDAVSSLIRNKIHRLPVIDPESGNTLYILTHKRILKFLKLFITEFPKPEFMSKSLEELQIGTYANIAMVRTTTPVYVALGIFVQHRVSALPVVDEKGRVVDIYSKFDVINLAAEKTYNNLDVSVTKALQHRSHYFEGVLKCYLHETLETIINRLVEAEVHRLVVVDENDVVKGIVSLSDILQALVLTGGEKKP
- METHOD: Test Example 2: activation of phosphorylated human AMPK α2β2γ1 (mobility-shift kinase assay, FL-Peptide 7)
- Assay type: biochemical
- CONDITIONS: compound concentration showing 150% relative to the control (100%); human AMPK α2β2γ1 phosphorylated with CaMKK2
TEST_READOUT: EC150 (nM)
Lab book: enter the figure in nM, no units written.

Solved cases (2 shown):
>  <MOLECULE>
COCCOc1ccc(-c2ccc(-c3nc4cc(O[C@@H]5CO[C@H]6[C@@H]5OC[C@H]6O)[nH]c4cc3F)cc2)cn1 [Compound I-2-40]

>  <TARGET_OR_SYSTEM>
Human AMPK α2β2γ1 (Homo sapiens, UniProt O43741+P54646)

>  <EC150 / nM>
16

$$$$
>  <MOLECULE>
CN(C)S(=N)(=O)c1ccc(-c2ccc(-c3nc4cc(O[C@@H]5CO[C@H](CO)C5)[nH]c4cc3F)cc2)cc1 (stereo partly drawn) [Compound I-2-25]

>  <TARGET_OR_SYSTEM>
Human AMPK α2β2γ1 (Homo sapiens, UniProt O43741+P54646)

>  <EC150 / nM>
1.9

$$$$

Field: next molecule
// CP(C)(=O)c1ccc(-c2ccc(-c3nc4cc(O[C@@H]5CO[C@H](CO)C5)[nH]c4cc3F)cc2)cc1 [Compound I-2-65] : EC150 value = 0.6
